Taken from PubChem BioAssay AID1645864.

Target or test system: Ubiquitin carboxyl-terminal hydrolase 17-like protein 5 (Homo sapiens) (UniProt A8MUK1)
Sequence (A8MUK1 whole entry, looked up): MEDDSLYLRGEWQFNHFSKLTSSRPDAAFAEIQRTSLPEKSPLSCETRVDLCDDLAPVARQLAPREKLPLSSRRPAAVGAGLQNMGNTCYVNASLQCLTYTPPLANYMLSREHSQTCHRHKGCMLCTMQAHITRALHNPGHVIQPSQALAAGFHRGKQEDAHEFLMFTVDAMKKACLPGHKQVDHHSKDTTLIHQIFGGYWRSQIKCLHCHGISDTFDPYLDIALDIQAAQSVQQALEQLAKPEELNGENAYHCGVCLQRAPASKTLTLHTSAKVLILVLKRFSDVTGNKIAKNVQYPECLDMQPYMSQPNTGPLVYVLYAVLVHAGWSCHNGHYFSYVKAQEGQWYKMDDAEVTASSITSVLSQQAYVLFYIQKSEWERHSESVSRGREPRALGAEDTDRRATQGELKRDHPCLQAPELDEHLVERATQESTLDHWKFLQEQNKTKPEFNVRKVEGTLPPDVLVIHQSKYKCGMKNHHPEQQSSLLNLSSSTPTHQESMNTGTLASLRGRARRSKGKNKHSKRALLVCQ
Experiment notes: ubiquitin-specific protease 17 DUB inhibitors, concentration-effect assay, cell-free, verification of initial screening actives (AID 1645864)
Conditions: purified USP17, ubiquitin-rhodamine cleavage fluorescence, 3 h
Calls of active or inactive are those of the source.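 The calls were made as follows: active = maximal inhibition of USP17 at or above 30% in the confirmation dose-response, a value not among the printed readouts; inactive = the rest.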
# output must be one of active, inactive

Cc1ccc(-c2noc(-c3nnc(SCC(=O)NC4CCCC4)n3C)n2)cc1    active
Cc1c(C(=O)c2ccccc2)c2ccccn2c1CCc1ccccn1    inactive
c1csc(CCN2CCc3nc4cccnc4cc3C2)c1    inactive
CCOc1ccc(-c2ccc3nnc(SCC(=O)Nc4cccc(C(C)=O)c4)n3n2)cc1    active
O=C(Nc1ccc2c(c1)OCCO2)c1cccc2nc3ccccc3nc12    active
COc1ccc(NC(=O)c2nnn(-c3cccc(C)c3)c2C)cc1    inactive

Then there is this molecule:
Could you kindly confirm the outcome this assay logged for COc1ccc2nc3c(cc2c1)c(=O)n(C)c1c3c(=O)n(-c2ccccc2)c(=O)n1-c1ccccc1 ?
inactive

---

Target or test system: Ubiquitin carboxyl-terminal hydrolase 17-like protein 5 (Homo sapiens)
Experiment notes: ubiquitin-specific protease 17 DUB inhibitors, concentration-effect assay, cell-free, verification of initial screening actives (AID 1645864)
Conditions: purified USP17, ubiquitin-rhodamine cleavage fluorescence, 3 h
The source made the active and inactive calls.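 Rule for the calls: active = maximal inhibition of USP17 at or above 30% in the confirmation dose-response, a value not among the printed readouts; inactive = the rest.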
# output must be one of 1 = active, 0 = inactive

Worked cases, answers included:
CC1=C(c2ccc(F)cc2)S(=O)(=O)NC1=NCC(=O)Nc1ccc(F)cc1    1
Cc1ccc(-c2cnc(C3CC3)o2)cc1S(=O)(=O)Nc1ccc(F)c(Cl)c1    1

Could you kindly confirm the outcome this assay logged for O=C(NCc1ccc2c(c1)OCO2)c1cc(-c2cc(Cl)ccc2O)n[nH]1 ?
1

Could you kindly confirm the outcome this assay logged for O=C(Nc1ccc(Oc2cccc3cccnc23)cc1)c1cccs1 ?
0

Could you kindly confirm the outcome this assay logged for Cc1cc(NC(=O)c2nnn(-c3ccccc3Cl)c2C)no1 ?
0

Could you kindly confirm the outcome this assay logged for Cc1cc(-n2c(C)cc(-c3csc(N)n3)c2C)no1 ?
0

Could you kindly confirm the outcome this assay logged for Cc1cc(NCC2CC2)n2nc(Nc3cc(Cl)ccc3C)nc2n1 ?
1

---

Target or test system: Ubiquitin carboxyl-terminal hydrolase 17-like protein 5 (Homo sapiens) (UniProt A8MUK1)
Experiment notes: ubiquitin-specific protease 17 DUB inhibitors, concentration-effect assay, cell-free, verification of initial screening actives (AID 1645864)
Conditions: purified USP17, ubiquitin-rhodamine cleavage fluorescence, 3 h
Activity calls are given as the source filed them.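 How the source made its calls: active means maximal inhibition of USP17 at or above 30% in the confirmation dose-response, a value not among the printed readouts; inactive means the rest.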
# output must be one of y = active, n = inactive

Worked cases, answers included:
N#Cc1ccc(NC(=O)COC(=O)c2ccc3ccccc3n2)cc1    n
CC1CCN(c2cc(-n3cnc(C(=O)N4CCCCC4)c3)ncn2)CC1    n
COc1ccc(S(=O)(=O)N2CCN3Cc4ccccc4N(C)CC3C2)cc1 (stereo not given)    n
O=S(c1ccc2ccccc2c1)c1cnns1 (stereo not given)    n
CCC/C=C\C#CC/C=C\CCCCCCCC(=O)O    y

Then there is this molecule:
Could you kindly confirm the outcome this assay logged for O=C(Nc1ccc2sccc2c1)c1ccc(F)cc1 ?
y

---

Listed next: entries and their corresponding IC50.
Target or test system: Ubiquitin carboxyl-terminal hydrolase 17-like protein 5 (Homo sapiens) (UniProt A8MUK1)
Experiment notes: ubiquitin-specific protease 17 DUB inhibitors, concentration-effect assay, cell-free, verification of initial screening actives (AID 1645864)
Conditions: purified USP17, ubiquitin-rhodamine cleavage fluorescence, 3 h
The source made the active and inactive calls.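 How the source made its calls: active means maximal inhibition of USP17 at or above 30% in the confirmation dose-response, a value not among the printed readouts; inactive means the rest.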

These recorded examples may help you get a feel for the data.
Cc1ccc(C(=O)Nc2cc3c4c(c2)CC(=O)N4CCC3)cc1    > 50 µM (inactive)
Cc1ccc(C(=O)Nc2ccc(S(=O)(=O)N3CCCC3)cc2)cc1Br    > 50 µM (inactive)
Cc1ccc(C2c3c(-c4ccccc4O)n[nH]c3C(=O)N2Cc2ccco2)cc1 (stereo not drawn)    28.1 µM
COc1ccc(S(=O)(=O)Nc2ccc(Nc3ccc(-n4cccn4)nn3)cc2)cc1    44.9 µM

Summary for this molecule, O=C(Nc1cccc2ccccc12)N1CCC(c2nc3c(nnn3Cc3ccc(F)cc3)c(=O)[nH]2)CC1 : IC50 is 28.6 µM
